Reference source: patent US20220112288A1

target: T1, human CD4 on cells (SKW3 cells; human PBMCs) (human, UniProt P01730 26-458); assay: FACS primary screen, non-clonal hybridoma supernatant, SKW3 vs SKW3 CD4 knockout cells, anti-mouse Fc A647
T1 construct: whole, on cells; SKW3 CD4 knockout cells served as the negative cell line; also called hCD4
endpoint-name: SKW3 WT vs KO anti-mFc-647 (fold)
Dear colleague, please return just the value in fold, with no unit written.

Prompt line: Name the recorded SKW3 WT vs KO anti-mFc-647 of the binder listed here: 75110_01D24A (antibody, V domains shown, Tested as non-clonal AlivaMab Mouse Kappa hybridoma supernatant: human variable domains and human kappa, mouse Fc) VH: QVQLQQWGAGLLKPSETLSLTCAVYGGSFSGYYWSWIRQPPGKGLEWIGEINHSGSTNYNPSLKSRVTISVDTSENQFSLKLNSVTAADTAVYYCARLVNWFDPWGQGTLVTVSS VL: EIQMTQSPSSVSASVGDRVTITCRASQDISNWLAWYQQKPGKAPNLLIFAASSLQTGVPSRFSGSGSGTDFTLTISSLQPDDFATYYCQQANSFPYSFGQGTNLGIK
Response line: 6.8
